The values you see were collected from paper PMC12297293.

Target sequence: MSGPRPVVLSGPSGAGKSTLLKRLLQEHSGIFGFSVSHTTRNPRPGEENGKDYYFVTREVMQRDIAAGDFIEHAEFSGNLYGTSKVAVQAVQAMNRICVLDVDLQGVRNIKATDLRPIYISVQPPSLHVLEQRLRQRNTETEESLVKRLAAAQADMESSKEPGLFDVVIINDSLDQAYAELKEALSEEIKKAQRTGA
MEASUREMENT NAME: Kd

Exam item: Returns the measured Kd for the input compound. Input: Nc1nc2c(ncn2[C@@H]2O[C@H](COP(=O)(O)O)[C@@H](O)[C@H]2O)c(=O)[nH]1
Marked response: 170 µM
